# assay.target: Serine/threonine-protein kinase haspin (Homo sapiens) (UniProt Q8TF76)
# Sequence (Q8TF76 whole entry): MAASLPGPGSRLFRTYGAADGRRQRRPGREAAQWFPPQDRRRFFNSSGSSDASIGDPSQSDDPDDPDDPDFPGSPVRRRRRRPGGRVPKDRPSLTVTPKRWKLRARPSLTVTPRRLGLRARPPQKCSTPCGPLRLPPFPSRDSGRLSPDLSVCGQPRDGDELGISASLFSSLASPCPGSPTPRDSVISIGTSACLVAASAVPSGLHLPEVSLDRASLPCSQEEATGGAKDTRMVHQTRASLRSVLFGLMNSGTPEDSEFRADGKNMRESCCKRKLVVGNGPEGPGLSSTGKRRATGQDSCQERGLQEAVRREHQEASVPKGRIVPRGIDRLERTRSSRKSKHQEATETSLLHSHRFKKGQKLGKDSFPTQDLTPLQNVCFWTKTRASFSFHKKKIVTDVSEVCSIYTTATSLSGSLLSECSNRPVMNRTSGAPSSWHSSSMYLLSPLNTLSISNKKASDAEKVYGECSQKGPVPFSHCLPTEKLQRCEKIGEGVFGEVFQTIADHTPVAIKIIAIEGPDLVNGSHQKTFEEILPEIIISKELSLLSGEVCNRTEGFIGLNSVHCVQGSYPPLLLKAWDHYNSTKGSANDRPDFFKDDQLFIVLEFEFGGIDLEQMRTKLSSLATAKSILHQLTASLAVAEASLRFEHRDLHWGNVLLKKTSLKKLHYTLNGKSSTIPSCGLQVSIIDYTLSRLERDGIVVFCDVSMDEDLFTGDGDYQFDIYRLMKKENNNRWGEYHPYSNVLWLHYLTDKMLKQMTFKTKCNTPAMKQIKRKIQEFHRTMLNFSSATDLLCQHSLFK
# condition.notes: at 1 µM

compound | residual activity
Oc1cccc(-c2nc(N3CCOCC3)c3oc4ncccc4c3n2)c1 | 76%
CCN(CC)CCNC(=O)c1c(C)[nH]c(/C=C2\C(=O)Nc3ccc(Cl)cc32)c1C | 43%
O=S(=O)(NCCNC/C=C/c1ccc(Br)cc1)c1cccc2cnccc12 | 7%
COc1ccc(-c2cnc3c(-c4ccsc4)cnn3c2)cc1 | 95%
CC(C)(C)n1nc(Cc2cccc3ccccc23)c2c(N)ncnc21 | 79%

---

The compounds listed here are annotated with their residual activity.
# assay.target: Serine/threonine-protein kinase MRCK beta (Homo sapiens)
# condition.notes: at 1 µM

compound | unit | residual activity
CC(C)N(CCC(=O)c1ccc2ccccc2c1)Cc1ccccc1 | % | 82
Cn1c2ccccc2c2c3c(c4c5ccccc5n(CCC#N)c4c21)CNC3=O | % | 74
CC(C)c1nn(-c2c(Cl)cccc2Cl)c2nc(Cc3ccc(OCCO)cc3)[nH]c(=O)c12 | % | 97
CCOC(=O)c1c(C)[nH]c(/C=C2\C(=O)Nc3ccccc32)c1C | % | 91
